Test system: IGROV1
Assay: NCI 60 cell line screen
Assay type: cell-based
Conditions: Homo sapiens, IGROV-1; IGROV1, Ovarian Cancer; read-out: Percent growth
Protocol: Anticancer profiling over a panel of 60 cancer cell lines was carried out at the National Cancer Institute (NCI), Bethesda, Maryland, USA, https://dtp.cancer.gov/discovery_development/nci-60/methodology.htm (Last visit 22 September 2021), using the standard procedure (detailed procedure is located in the Supplementary Information page 50 s). NCI standard procedure for 60 cell lines assay […] Three dose response parameters are calculated for each experimental agent. […] (TGI) is calculated from Ti = Tz.
Field 'label' (enum: MET / NOT MET). Set to MET when activity at 10 µM is strictly under 90%; else NOT MET.

Lab note: activity at 10 µM threshold 90%. Does this compound come in strictly under it? Cc1ccc(S(=O)(=O)NCCNc2nccc(-n3cnc4ccccc43)n2)cc1 [12g] MET

One more compound: O=S(=O)(NCCCNc1nccc(-n2cnc3ccccc32)n1)c1ccc(C(F)(F)F)cc1 [12l] MET

One more compound: O=S(=O)(NCCNc1nccc(-n2cnc3ccccc32)n1)c1ccc(C(F)(F)F)cc1 [12e] MET

One more compound: O=S(=O)(NCCCNc1nccc(-n2cnc3ccccc32)n1)c1ccccc1 [12h] NOT MET

One more compound: O=S(=O)(NCCCNc1nccc(-n2cnc3ccccc32)n1)c1cccc2ccccc12 [12n] NOT MET
